These entries and their values trace back to patent US20240067631A1.

// reported AC1.4 Human per item
Target: UniProtKB P43490
Assay: Human recombinant enzyme assay (NMN fluorescence biochemical assay)
Details: concentration of compound that generates 40% higher activity over basal; 6 nM human NAMPT, 60 min

Molecule	AC1.4 Human [µM]
Cc1nc(C(N)=O)nc(N(CCc2ccccc2)CCc2cn[nH]c2)c1C [Compound 1]	0.003
Cc1nc(C(=O)N2CCOCC2c2cccc(F)c2)nc(NCCc2cn[nH]c2)c1C (centres unmarked) [Compound 7]	0.029
Cc1nc(C(=O)NC(C)c2ccc(Cl)s2)nc(NCCc2cn[nH]c2)c1C (centres unmarked) [Compound 70]	0.5795
Cc1nc(C(=O)N2CCC2c2ccccc2)nc(NCCc2cn[nH]c2)c1C (centres unmarked) [Compound 132]	3.5055
COC1(c2ccccc2)CN(C(=O)c2nc(C)c(C)c(NCCc3cn[nH]c3)n2)C1 [Compound 102]	2.0105
Cc1nc(C(=O)N2CCOCC2c2ccccc2Cl)nc(NCCc2cn[nH]c2)c1C (centres unmarked) [Compound 80]	0.877
Cc1nc(C(=O)NCC(O)C(F)(F)F)nc(NCCc2cn[nH]c2)c1C (centres unmarked) [Compound 128]	3.235
Cc1nc(C(=O)N2CCC(c3ccccc3F)C2)nc(NCCc2cn[nH]c2)c1C (centres unmarked) [Compound 66]	4.5565
Cc1nc(C(=O)N(C)[C@H](C)c2ccccc2Cl)nc(NCCc2cn[nH]c2)c1C [Compound 53]	0.3335
Cc1nc(C(=O)N2CCOCC2C(F)(F)F)nc(NCCc2cn[nH]c2)c1C (centres unmarked) [Compound 138]	4.125
Cc1nc(C(=O)NC(C)c2cncs2)nc(NCCc2cn[nH]c2)c1C (centres unmarked) [Compound 103]	1.6375
Cc1nc(C(=O)NC(C)(C)c2cccc(F)c2)nc(NCCc2cn[nH]c2)c1C [Compound 11]	0.0465
COc1cccc([C@@H](C)NC(=O)c2nc(C)c(C)c(NCCc3cn[nH]c3)n2)n1 [Compound 43]	0.273
Cc1nc(C(=O)N2CC(CO)(c3ccccc3)C2)nc(NCCc2cn[nH]c2)c1C [Compound 84]	31.857
Cc1nc(C(=O)NC(C)(C)c2ccccc2)nc(NCCc2cn[nH]c2)c1C [Compound 21]	0.0815
Cc1nc(C(=O)NC(c2cccc(F)c2)c2ccccn2)nc(NCCc2cn[nH]c2)c1C (centres unmarked) [Compound 46]	0.2845
Cc1nc(C(=O)N[C@H](C)c2ccccc2Cl)nc(NCCc2cn[nH]c2)c1C [Compound 26]	0.1215

---

// reported pEC50 per item
Target: human NAMPT (Homo sapiens (Human), UniProt P43490)
Sequence (P43490 whole entry): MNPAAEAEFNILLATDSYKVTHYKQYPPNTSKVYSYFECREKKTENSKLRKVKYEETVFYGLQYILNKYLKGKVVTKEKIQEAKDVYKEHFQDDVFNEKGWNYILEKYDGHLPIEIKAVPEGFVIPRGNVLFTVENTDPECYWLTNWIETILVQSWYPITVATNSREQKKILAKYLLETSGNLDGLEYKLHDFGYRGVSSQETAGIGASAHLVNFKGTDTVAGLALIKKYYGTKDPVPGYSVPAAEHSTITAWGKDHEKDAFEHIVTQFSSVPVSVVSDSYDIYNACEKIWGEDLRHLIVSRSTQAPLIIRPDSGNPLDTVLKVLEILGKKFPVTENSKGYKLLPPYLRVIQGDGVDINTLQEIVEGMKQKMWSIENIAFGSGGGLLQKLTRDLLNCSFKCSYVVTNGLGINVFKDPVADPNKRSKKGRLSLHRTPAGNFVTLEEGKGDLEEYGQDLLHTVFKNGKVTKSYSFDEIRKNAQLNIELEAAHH
Test: Human recombinant enzyme assay (NMN fluorescence biochemical assay)
Conditions: concentration that gives half-maximal activation; 6 nM human NAMPT, 60 min
Method: Compounds described herein were assayed for their ability to stimulate the synthesis of nicotinamide mononucleotide (NMN) by the enzyme NAMPT. […] Dose responses were measured using an assay to detect the formation of nicotinamide mono-nucleotide. […] The plates were read for fluorescence (Excitation/Emission=355 nm/460 nm) using an EnVision plate reader after 40 mins of incubation at ambient temperature. […]
pEC50: −log10 of the molar value.

Compound	pEC50
Cc1nc(C(=O)N2CC(C)(O)C2)nc(NCCc2cn[nH]c2)c1C	4.66
Cc1nc(C(=O)NC(C)(C)c2ccc(F)cc2)nc(NCCc2cn[nH]c2)c1C	4.84
Cc1nc(C(=O)N[C@H](C)c2ncccc2F)nc(NCCc2cn[nH]c2)c1C	5.86
Cc1nc(C(=O)NC(c2ccccc2)c2nccn2C)nc(NCCc2cn[nH]c2)c1C (stereo not drawn)	5.90
Cc1nc(C(=O)NCc2n[nH]c3ccccc23)nc(NCCc2cn[nH]c2)c1C	5.60
Cc1nc(C(=O)NCC(F)(F)c2ccccc2)nc(NCCc2cn[nH]c2)c1C	4.73
Cc1nc(C(=O)NC(C)c2cncs2)nc(NCCc2cn[nH]c2)c1C (stereo not drawn)	4.67
Cc1nc(C(=O)N2CC(F)(F)C2)nc(NCCc2cn[nH]c2)c1C	5.11
Cc1nc(C(=O)N2CC(O)(c3cccc(F)c3F)C2)nc(NCCc2cn[nH]c2)c1C	5.73
COC[C@H](NC(=O)c1nc(C)c(C)c(NCCc2cn[nH]c2)n1)c1cccc(F)c1	5.68
Cc1nc(C(=O)N[C@H](C)c2ccc(F)cn2)nc(NCCc2cn[nH]c2)c1C	4.93
Cc1nc(C(=O)NC(C)(C)c2cccc(F)c2)nc(NCCc2cn[nH]c2)c1C	6.55
Cc1nc(C(=O)N2CC(CO)(c3ccccc3)C2)nc(NCCc2cn[nH]c2)c1C	4.40
Cc1nc(C(=O)NCC2(c3ccccc3)COC2)nc(NCCc2cn[nH]c2)c1C	5.09
Cc1nc(C(=O)N[C@@H](C)c2cccc(F)n2)nc(NCCc2cn[nH]c2)c1C	5.49
Cc1nc(C(=O)NC(c2cccc(F)c2)c2ccccn2)nc(NCCc2cn[nH]c2)c1C (stereo not drawn)	5.63
Cc1nc(C(=O)N[C@H](C)c2cncc(F)c2)nc(NCCc2cn[nH]c2)c1C	4.95
Cc1nc(C(=O)N[C@H](C)c2cc3ccccc3o2)nc(NCCc2cn[nH]c2)c1C	5.53
Cc1nc(C(=O)N2CCOCC2c2cccc(Cl)c2)nc(NCCc2cn[nH]c2)c1C (stereo not drawn)	6.29
COCC(c1ccc(F)cc1)N(C)C(=O)c1nc(C)c(C)c(NCCc2cn[nH]c2)n1 (stereo not drawn)	5.25
Cc1nc(C(=O)N2CCC2c2ccccc2)nc(NCCc2cn[nH]c2)c1C (stereo not drawn)	4.88
Cc1nc(C(=O)NC(C)(C)c2cccnc2)nc(NCCc2cn[nH]c2)c1C	4.66
Cc1nc(C(=O)NCC2CN(C(=O)c3ccccc3)C2)nc(NCCc2cn[nH]c2)c1C	5.54
Cc1nc(C(=O)N[C@@H](C)c2ccccn2)nc(NCCc2cn[nH]c2)c1C	4.46
Cc1nc(C(=O)N2CCC[C@@H]2c2ccccc2F)nc(NCCc2cn[nH]c2)c1C	5.63
Cc1nc(C(=O)N2CC(c3ccccc3)C2)nc(NCCc2cn[nH]c2)c1C	5.17
Cc1nc(C(=O)NC(C)c2ccc(Cl)s2)nc(NCCc2cn[nH]c2)c1C (stereo not drawn)	5.51
Cc1nc(C(=O)NCC2(c3cccc(F)c3)COC2)nc(NCCc2cn[nH]c2)c1C	5.10
Cc1cccc(F)c1NC(=O)c1nc(C)c(C)c(NCCc2cn[nH]c2)n1	4.54
Cc1nc(C(=O)NCc2ccccn2)nc(NCCc2cn[nH]c2)c1C	4.83
Cc1nc(C(=O)NC(c2cccc(F)c2)c2ncco2)nc(NCCc2cn[nH]c2)c1C (stereo not drawn)	5.49
Cc1nc(C(=O)N2CCC(F)(F)CC2c2ccccc2)nc(NCCc2cn[nH]c2)c1C (stereo not drawn)	5.87
Cc1nc(C(=O)N2CCC[C@@H]2c2ccc(F)cc2)nc(NCCc2cn[nH]c2)c1C	5.09

---

Target: human NAMPT (Homo sapiens (Human))
Assay: Human recombinant enzyme assay (NMN fluorescence biochemical assay)
Conditions: concentration that gives half-maximal activation; 6 nM human NAMPT, 60 min
pEC50: −log10 of the molar value.
// reported pEC50 per item
Experimental readout: pEC50

Compound	Target entity	Observed result
Cc1nc(C(=O)N2CCOCC2c2ccc(F)cc2)nc(NCCc2cn[nH]c2)c1C (stereo not drawn)	human NAMPT (Homo sapiens (Human))	5.41
Cc1nc(C(=O)N2CCOCC2c2ccccc2Cl)nc(NCCc2cn[nH]c2)c1C (stereo not drawn)	human NAMPT (Homo sapiens (Human))	4.98
Cc1nc(C(=O)NCC(C)(C)c2cccc(F)c2)nc(NCCc2cn[nH]c2)c1C	human NAMPT (Homo sapiens (Human))	5.79
Cc1nc(C(=O)Nc2ccccc2)nc(NCCc2cn[nH]c2)c1C	human NAMPT (Homo sapiens (Human))	4.74
Cc1cccc([C@@H](C)NC(=O)c2nc(C)c(C)c(NCCc3cn[nH]c3)n2)n1	human NAMPT (Homo sapiens (Human))	5.25
Cc1nc(C(=O)N2CCC(c3c[nH]c4ccccc34)CC2)nc(NCCc2cn[nH]c2)c1C	human NAMPT (Homo sapiens (Human))	5.74
Cc1nc(C(=O)N[C@H](C)c2ccco2)nc(NCCc2cn[nH]c2)c1C	human NAMPT (Homo sapiens (Human))	5.58
Cc1nc(C(=O)N2CC(C(F)(F)F)C2)nc(NCCc2cn[nH]c2)c1C	human NAMPT (Homo sapiens (Human))	4.40
Cc1nc(C(=O)N[C@H](C)C2CCCCC2)nc(NCCc2cn[nH]c2)c1C	human NAMPT (Homo sapiens (Human))	4.53

---

Target: human NAMPT (Homo sapiens (Human), UniProt P43490)
Test: Human recombinant enzyme assay (NMN fluorescence biochemical assay)
Conditions: concentration of compound that generates 40% higher activity over basal; 6 nM human NAMPT, 60 min
Rule: AC1.4 Human under 1 µM gives criterion not met, otherwise criterion met.

Compound	Cat
Cc1nc(C(=O)N2CCC2c2cccc(F)c2)nc(NCCc2cn[nH]c2)c1C (centres unmarked)	criterion met
Cc1nc(C(=O)N2CCC[C@@H]2c2ccc(F)cc2)nc(NCCc2cn[nH]c2)c1C	criterion met
COC[C@H](NC(=O)c1nc(C)c(C)c(NCCc2cn[nH]c2)n1)c1cccc(F)c1	criterion not met
Cc1nc(C(=O)NCc2coc3ccccc23)nc(NCCc2cn[nH]c2)c1C	criterion not met
Cc1nc(C(=O)NCc2n[nH]c3ccccc23)nc(NCCc2cn[nH]c2)c1C	criterion met
